target: TDP-43 RRM1-2 (UniProt Q13148 102-269); experiment: BLI; BLI: 10 mM potassium phosphate pH 7.2, 150 mM KCl, 0.01% Tween20, 25 °C; biotin-RNA on streptavidin sensors, protein 20 nM-20 µM; PAINT in PBS; conditions: protein: recombinant; tags: His6-SUMO tag cleaved (TEV); label: 5' biotin
Sequence (Q13148 102-269): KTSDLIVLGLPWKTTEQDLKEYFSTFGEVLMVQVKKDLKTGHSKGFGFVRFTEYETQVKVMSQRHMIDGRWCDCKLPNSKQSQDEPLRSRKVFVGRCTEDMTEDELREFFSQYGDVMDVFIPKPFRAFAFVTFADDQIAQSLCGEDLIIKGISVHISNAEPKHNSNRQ
attribute.measured: Kd

In [3]: df
Out[3]:
                        binder  attribute_measured  value_reported
0  AGCAACACCG (ssRNA) [nApt-1]                  Kd         1730 nM
